Origin of measurements: patent US4748251A

Test system: Klebsiella pneumoniae ATCC 10031
run_description: microbe, parasite or virus in culture
Format: cell-based
protocol_conditions: ATCC10031, pH 7, read-out: minimum growth inhibitory concentration
Entries and their MIC
value_type: MIC

[[record]]
compound = "CO[C@]12[C@@H]3[C@H](CN1C1=C(C(=O)C(N=CN(C)C)=C(C)C1=O)[C@@H]2COC(N)=O)N3C (stereo partly drawn) [Compound 4a, 7-N-Dimethylaminomethylenemitomycin E]"
value_type = "MIC"
observed_result = "2.5 µg/mL"

[[record]]
compound = "C=C1C2=C(C(=O)C(C)=C(N=CN(C)C)C2=O)N2C[C@@H]3N[C@@H]3[C@]12OC [Compound 2]"
value_type = "MIC"
observed_result = "10 µg/mL"

[[record]]
compound = "CO[C@]12[C@@H]3[C@H](CN1C1=C(C(=O)C(N=CN(C)C)=C(C)C1=O)[C@@H]2COC(=O)N=CN(C)C)N3C (stereo partly drawn) [Compound 4b]"
value_type = "MIC"
observed_result = "40 µg/mL"


###

Listed compounds paired with reported MIC
System: Klebsiella pneumoniae ATCC 10031
run_description: microbe, parasite or virus in culture
Assay type: cell-based
protocol_conditions: ATCC10031, pH 7, read-out: minimum growth inhibitory concentration
Protocol: The minimum growth inhibitory concentration was measured at pH 7.0 according to the agar dilution method. In the table, bacteria are indicated by the following letters. KP: Klebsiella pneumoniae ATCC 10031
value_type: MIC (µg/mL)

[[record]]
compound = "CC1=C(N=CN(C)C)C(=O)C2=C(C1=O)N1C[C@H]3[C@H](N3C)[C@]1(O)[C@@H]2COC(N)=O (stereo partly drawn)"
value_type = "MIC"
observed_result = 0.63

[[record]]
compound = "CC1=C(N=CN(C)C)C(=O)C2=C(C1=O)N1C[C@H]3[C@H](N3C)[C@]1(O)[C@H]2COC(N)=O (stereo partly drawn)"
value_type = "MIC"
observed_result = 2.5

[[record]]
compound = "C=C1C2=C(C(=O)C(C)=C(N=CN(C)C)C2=O)N2C[C@H]3[C@H](N3C)[C@]12O (stereo partly drawn)"
value_type = "MIC"
observed_result = 10


###

System: Bacillus subtilis 10707
run_description: Antibacterial activity, agar dilution method, pH 7.0 (BS)
Assay type: cell-based
protocol_conditions: Bacillus subtilis, 10707, pH 7, read-out: minimum growth inhibitory concentration
Experimental: Antibacterial activities of some compounds covered by the present invention against various bacteria are shown by the minimum growth inhibitory concentration (μg/ml) in Table 1. The minimum growth inhibitory concentration was measured at pH 7.0 according to the agar dilution method. In the table, bacteria are indicated by the following letters. BS: Bacillus subtilis 10707
// reported MIC for each item listed
value_type: MIC (µg/mL)

[[record]]
compound = "C=C1C2=C(C(=O)C(C)=C(N=CN(C)C)C2=O)N2C[C@@H]3N[C@@H]3[C@]12OC [Compound 2]"
observed_result = 0.078

[[record]]
compound = "CC1=C(N=CN(C)C)C(=O)C2=C(C1=O)N1C[C@H]3[C@H](N3C)[C@]1(O)[C@@H]2COC(N)=O (stereo partly drawn) [Compound 6c]"
observed_result = 0.63

[[record]]
compound = "CO[C@]12[C@@H]3[C@H](CN1C1=C(C(=O)C(N=CN(C)C)=C(C)C1=O)[C@@H]2COC(=O)N=CN(C)C)N3C (stereo partly drawn) [Compound 4b]"
observed_result = 2.5

[[record]]
compound = "C=C1C2=C(C(=O)C(C)=C(N=CN(C)C)C2=O)N2C[C@H]3[C@H](N3C)[C@]12O (stereo partly drawn) [Compound 1]"
observed_result = 0.078

[[record]]
compound = "CC1=C(N=CN(C)C)C(=O)C2=C(C1=O)N1C[C@H]3[C@H](N3C)[C@]1(O)[C@H]2COC(N)=O (stereo partly drawn) [Compound 3a, 7-N-Dimethylaminomethylenemitomycin D]"
observed_result = 2.5

[[record]]
compound = "CO[C@]12[C@@H]3[C@H](CN1C1=C(C(=O)C(N=CN(C)C)=C(C)C1=O)[C@@H]2COC(N)=O)N3C (stereo partly drawn) [Compound 4a, 7-N-Dimethylaminomethylenemitomycin E]"
observed_result = 0.16

